The values you see were collected from patent US20260042731A1.

- procedureDetails: Volatility of compounds measured by thermogravimetric analysis (TGA)
- Format: physicochemical
- conditions: value marked *: decomposition of the material was observed
quantityMeasured: TGA Data (rate of weight loss, volatility)

Here is how some molecules turned out for TGA Data (rate of weight loss, volatility).
molecule	assayResult
CCN(CC)OC(=O)COc1ccc(Cl)cc1Cl	1.352* μg/min
O=C(COc1ccc(Cl)cc1Cl)NOC1CCCCO1 (stereo not shown)	6.9* μg/min
C/C(=N\OC(=O)COc1ccc(Cl)cc1Cl)c1cccnc1	1.599* μg/min

// next item, TGA Data (rate of weight loss, volatility) requested
So what does the record say about TGA Data (rate of weight loss, volatility) for "C/C(=N\OC(=O)COc1ccc(Cl)cc1Cl)c1ccncc1" ?
1.27* μg/min
